# experiment: qHTS assay to identify small molecule HDAC inhibitors - cell viability counter screen (AID 1259365); further: on the % scale 0 is the no-effect control and ±100 the full control effect; nearly all actives have a fitted effect of over 50% in size
# conditions: HCT-116 viability, CellTiter-Glo ATP luminescence, 2 h; series mostly up to 92.4 µM
Calls of active or inactive are those of the source. The call rests on the fitted dose curve; in most records, active means well fitted cell-killing curve with a large enough effect in the repeat runs; inconclusive means weak or mixed curves, or effect the other way; inactive means flat fitted curve, though single readings scatter.
measure name: activity change, negative = cytotoxicity

Guide cases for activity change, negative = cytotoxicity, answers given:
[[record]]
compound = "BrC/C=C/CBr"
result = "2.41% [at 19 µM] (inactive)"

[[record]]
compound = "CCCCCCCCCOCC1CO1 (configuration not stated)"
result = "inactive"

[[record]]
compound = "NS(=O)(=O)c1cc2c(cc1Cl)NC(CC1CCCC1)NS2(=O)=O (configuration not stated)"
result = "inactive"

[[record]]
compound = "COc1cc2c(Nc3ccc(Br)cc3F)ncnc2cc1OCC1CCN(C)CC1"
result = "inactive"

[[record]]
compound = "CC(=O)Nc1ncc([N+](=O)[O-])s1"
result = "inactive"

[[record]]
compound = "CC(C)C(=O)Nc1cccc(C(F)(F)F)c1"
result = "inactive"

[[record]]
compound = "C[Si]1(C)N[Si](C)(C)N[Si](C)(C)N1"
result = "inactive"

[[record]]
compound = "O=S(=O)(O)CCO"
result = "inactive"


Query block: Value lookup for activity change, negative = cytotoxicity; key = Cc1ncc([N+](=O)[O-])n1CC(O)CCl (configuration not stated)
Result block: inactive

Query block: // next record Cc1nc([N+](=O)[O-])cn1-c1ccc([N+](=O)[O-])cc1
Result block: inactive
